# TEST PROTOCOL: Chemical characteristics of composition A′, concentrated and diluted forms
# Type: physicochemical
READOUT NAME: logP

item_smiles=C=C(C)[C@@H]1CCC(C)=C[C@H]1c1c(O)cc(CCCCC)cc1O val=6
